Target: T1, recombinant human CD123-Fc (human, UniProt P26951 19-305)
T1 construct: not shown: Fc part of CD123-Fc
T1 sequence: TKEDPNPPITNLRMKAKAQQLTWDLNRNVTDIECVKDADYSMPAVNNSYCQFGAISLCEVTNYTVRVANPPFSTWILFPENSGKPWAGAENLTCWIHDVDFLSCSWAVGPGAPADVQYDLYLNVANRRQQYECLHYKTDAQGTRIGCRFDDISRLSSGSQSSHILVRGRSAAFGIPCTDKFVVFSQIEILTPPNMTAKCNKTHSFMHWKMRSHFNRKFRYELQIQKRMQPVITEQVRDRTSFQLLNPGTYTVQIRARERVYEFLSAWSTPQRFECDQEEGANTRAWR
Assay: phage ELISA, captured CD123-Fc
Excerpt: Individual colonies containing phagemid from BCMA panning output were picked and phage were rescued in 96-well format using VCSM13 helper phage following standard protocols. […] Binding was detected using an HRP-conjugated anti-M13 antibody and the ELISA ratio for each sequence is reported as the absorbance at 450 nm for target (i.e., BCMA-Fc, CD123-Fc, AFP, or AFP123) divided by that for IgG1-Fc averaged across all screened wells containing that clone.
Threshold 4 ratio A450 target/IgG1-Fc. ELISA_avg below it: 1. ELISA_avg at it or above: -1.

{"binder": "SEQ ID NO: 382 (designed binder, D domain, on phage) MGSWYEFEDRLWAIDNRLWALGGSEAELAAFEKEIAAFESELQAYKGKGNPEVEELRVHAADIRDDLQAYRHN", "discrete-label": -1}
{"binder": "SEQ ID NO: 406 (designed binder, D domain, on phage) MGSWYEFAKRLDAIYERLVALGGSEAELAAFEKEIAAFESELQAYKGKGNPEVEWLRSSAANIREELQAYRHN", "discrete-label": -1}
{"binder": "SEQ ID NO: 327 (designed binder, D domain, on phage) MGSWTEFVWRLEAIWDRLDALGGSEAELAAFEKEIAAFESELQAYKGKGNPEVEVLREDAAVIRHFLQAYRHN", "discrete-label": 1}
{"binder": "SEQ ID NO: 432 (designed binder, D domain, on phage) MGSWFEFYERLDAINWRLFALGGSEAELAAFEKEIAAFESELQAYKGKGNPEVEALRGEAAAIREDLQAYRHN", "discrete-label": 1}

Could you now look at the following binder, please?
[in] State whether 4 ratio A450 target/IgG1-Fc exceeds ELISA_avg recorded for SEQ ID NO: 518 (designed binder, D domain, on phage) MGSWTWFKWDLADIKGDLEALGGSEAELAFFEEEIAEFEWRLQDYKGKGNPEVEALRKEAAAIRDELQAYRHN .
[out] -1
